- Tested on: K-562 leukemia
- protocolSummary: NCI tumour cell line growth inhibition, 48 h
testReadout: TGI

Would you please look over these solved cases?
O=C(c1cccs1)N(Cc1cccnc1)C(=S)N(Cc1cccnc1)C(=O)c1cccs1 : > 100 µM
O=C(COc1ccc(Cl)cc1Cl)N/N=C/C=C/c1ccc([N+](=O)[O-])o1 : > 100 µM
Cc1ccc(NC(=O)c2cc3ccccc3cc2O)c(C)c1.Cc1ccc(NC(=O)c2cc3ccccc3cc2[O-])c(C)c1.[Ni+2] : 12.9 µM
O=C(O)[C@@H](NS(=O)(=O)c1ccc([N+](=O)[O-])cc1)c1ccccc1 : > 100 µM
CC1c2cc(c3c(c2O)CN([C@@H](C)C2CCCCC2)CO3)C(C)c2cc(c3c(c2O)CN([C@@H](C)C2CCCCC2)CO3)C(C)c2cc(c3c(c2O)CN([C@@H](C)C2CCCCC2)CO3)C(C)c2cc1c1c(c2O)CN([C@@H](C)C2CCCCC2)CO1 (stereo partly drawn) : 2.01 µM

Task item: For K-562 leukemia, provide TGI of "Fc1ccc2c3c([nH]c2c1)CCNC3" please.
Reply: > 100 µM

Task item: For K-562 leukemia, provide TGI of "Cc1nnc2n1N=C(c1cc(F)c(Cl)cc1Cl)/C(=C/c1ccc3c(c1)OCO3)S2" please.
Reply: > 100 µM

Task item: For K-562 leukemia, provide TGI of "COc1cc2c(cc1OC)-c1cc3ccc(OC)c(OC)c3c[n+]1CC2" please.
Reply: > 100 µM

The reported numbers originate from PubChem BioAssay (NCI).
